# testedOn: Cytochrome P450 1A2 (Homo sapiens, UniProt P05177)
# Sequence (P05177 whole entry): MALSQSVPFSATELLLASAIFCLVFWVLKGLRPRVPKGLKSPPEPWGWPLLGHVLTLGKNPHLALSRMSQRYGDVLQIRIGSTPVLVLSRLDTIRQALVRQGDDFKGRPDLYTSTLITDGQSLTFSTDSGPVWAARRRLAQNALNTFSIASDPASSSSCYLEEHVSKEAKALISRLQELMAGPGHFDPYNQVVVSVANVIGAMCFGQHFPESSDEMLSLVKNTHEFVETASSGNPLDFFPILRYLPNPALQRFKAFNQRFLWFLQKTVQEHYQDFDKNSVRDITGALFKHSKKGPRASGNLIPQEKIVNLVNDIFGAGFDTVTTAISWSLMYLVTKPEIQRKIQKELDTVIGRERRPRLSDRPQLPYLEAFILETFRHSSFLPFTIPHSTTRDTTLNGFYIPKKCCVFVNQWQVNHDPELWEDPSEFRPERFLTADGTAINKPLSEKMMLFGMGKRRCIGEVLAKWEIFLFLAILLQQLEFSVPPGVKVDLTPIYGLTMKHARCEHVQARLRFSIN

compoundStructureString: CCC[C@@H](CCO)Nc1nc(N)nc2c1CN(C(=O)c1csc(C)n1)CC2
IC50: > 10 µM
